Reference source: paper PMC10123497

Target: EGFR^Wt (Homo sapiens, UniProt P00533)
Sequence (P00533 25-1210): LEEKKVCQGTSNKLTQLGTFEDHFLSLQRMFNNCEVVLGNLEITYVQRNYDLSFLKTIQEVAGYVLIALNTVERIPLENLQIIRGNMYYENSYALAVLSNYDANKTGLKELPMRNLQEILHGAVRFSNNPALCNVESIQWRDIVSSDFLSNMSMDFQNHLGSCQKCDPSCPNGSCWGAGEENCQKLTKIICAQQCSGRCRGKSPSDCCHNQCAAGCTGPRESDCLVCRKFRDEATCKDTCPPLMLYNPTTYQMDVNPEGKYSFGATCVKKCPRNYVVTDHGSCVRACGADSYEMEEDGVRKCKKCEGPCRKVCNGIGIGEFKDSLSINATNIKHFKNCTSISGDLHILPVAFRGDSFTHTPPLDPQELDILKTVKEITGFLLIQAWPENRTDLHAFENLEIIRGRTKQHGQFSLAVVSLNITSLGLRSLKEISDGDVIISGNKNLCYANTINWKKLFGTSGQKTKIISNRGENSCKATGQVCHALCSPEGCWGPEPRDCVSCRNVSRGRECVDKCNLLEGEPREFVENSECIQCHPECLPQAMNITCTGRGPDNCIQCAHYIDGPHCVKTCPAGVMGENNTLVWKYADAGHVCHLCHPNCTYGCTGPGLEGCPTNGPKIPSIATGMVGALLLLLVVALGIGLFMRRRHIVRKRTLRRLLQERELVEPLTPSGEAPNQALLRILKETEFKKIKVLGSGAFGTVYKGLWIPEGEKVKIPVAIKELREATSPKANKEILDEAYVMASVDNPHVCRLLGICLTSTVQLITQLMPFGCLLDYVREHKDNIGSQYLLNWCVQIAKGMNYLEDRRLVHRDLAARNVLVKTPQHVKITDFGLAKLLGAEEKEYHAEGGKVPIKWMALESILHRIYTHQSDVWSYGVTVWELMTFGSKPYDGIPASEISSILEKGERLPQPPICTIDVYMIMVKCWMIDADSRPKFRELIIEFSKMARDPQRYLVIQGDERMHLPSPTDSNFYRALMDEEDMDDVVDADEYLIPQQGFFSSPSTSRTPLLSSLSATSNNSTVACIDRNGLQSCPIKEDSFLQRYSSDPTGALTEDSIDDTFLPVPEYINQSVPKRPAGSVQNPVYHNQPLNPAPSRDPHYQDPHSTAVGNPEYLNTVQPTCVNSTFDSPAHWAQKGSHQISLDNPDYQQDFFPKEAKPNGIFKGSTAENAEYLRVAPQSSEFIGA

MOLECULE_SMILES: O=C1CCCCC1=C1Sc2nc3ccc(S(=O)(=O)N4CCCC4)cc3nc2S1
IC50 (nM): 190

* * *

System: MCF-7
Test: MTT in vitro cytotoxicity assay
Conditions: read-out: In vitro cytotoxicity activity IC50 ± SD; MCF-7, MTT, 24 h
pIC50: −log10 of the molar value.
Catalogue of compounds with associated pIC50

COMPOUND: N#CC(C(=O)Nc1cccc(C(F)(F)F)c1)=C1Sc2nc3ccc(S(=O)(=O)N4CCCC4)cc3nc2S1 [Compound 10c]
pIC50: 5.21
//
COMPOUND: CCOC(=O)C(C(C)=O)=C1Sc2nc3ccc(S(=O)(=O)N4CCCC4)cc3nc2S1 [Compound 10f]
pIC50: 5.06
